Entry source: patent US20120172293A1

- ASSAY_TARGET: T1, human Y2 receptor (human, UniProt P49146 1-381)
- T1 construct: whole, on cells; used as membrane fraction of hY2R/CHO cells; also called human NPY2R; hY2R
- T1 sequence (looked up): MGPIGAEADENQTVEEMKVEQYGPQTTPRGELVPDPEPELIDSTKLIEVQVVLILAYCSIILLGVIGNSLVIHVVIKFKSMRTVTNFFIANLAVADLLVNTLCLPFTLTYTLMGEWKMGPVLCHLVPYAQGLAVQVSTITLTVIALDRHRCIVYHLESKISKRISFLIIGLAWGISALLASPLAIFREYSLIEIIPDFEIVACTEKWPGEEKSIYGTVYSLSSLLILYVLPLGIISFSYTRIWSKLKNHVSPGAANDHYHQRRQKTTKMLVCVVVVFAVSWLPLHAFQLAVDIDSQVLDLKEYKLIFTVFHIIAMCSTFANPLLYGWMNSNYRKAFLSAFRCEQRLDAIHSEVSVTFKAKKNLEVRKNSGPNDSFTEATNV
- ASSAY_COMMENT: RBA: [125I]-PYY displacement, hY2R/CHO membranes
Starred links: 1 amine or outer side, 2 acyl side, 3 side chain; linkers in the order of their positions; H or OH if unused. Non-standard residues stand in square brackets, D forms with d. No end group written: not given here. *: point of attachment. Thr(Me) = O-methylthreonine, CO[C@H](C)[C@H](N[*:1])C(=O)[*:2]; 4Amb = NCc1ccc(C(=O)O)cc1; Nva = CCC[C@H](N)C(=O)O; Bz = O=C(c1ccccc1)*
REPORTED_METRIC: IC50 Ratio (vs PYY(3-36)) (ratio)

[
  {
    "BINDER": "Bz-RAYINLI[Thr(Me)]RQRY-NH2 (also called compound No. 74) [4-Aminomethylbenzoyl-[Ala26, Ile28,31, Thr(Me)32]-PYY(25-36)]",
    "ENDPOINT_RESULT": 14
  },
  {
    "BINDER": "[4Amb]RAYINLI[Nva]RQRY-NH2 (N-terminus assumed; SMILES CCC[C@H](NC(=O)[C@@H](NC(=O)[C@H](CC(C)C)NC(=O)[C@H](CC(N)=O)NC(=O)[C@@H](NC(=O)[C@H](Cc1ccc(O)cc1)NC(=O)[C@H](C)NC(=O)[C@H](CCCNC(=N)N)NC(=O)c1ccc(CN)cc1)[C@@H](C)CC)[C@@H](C)CC)C(=O)N[C@@H](CCCNC(=N)N)C(=O)N[C@@H](CCC(N)=O)C(=O)N[C@@H](CCCNC(=N)N)C(=O)N[C@@H](Cc1ccc(O)cc1)C(N)=O, also called compound No. 61) [4-Aminomethylbenzoyl-[Ala26, Ile28,31, Nva32]-PYY(25-36)]",
    "ENDPOINT_RESULT": 29
  }
]
